Ref: ChEMBL document CHEMBL3988442

Tested on: Plasmodium falciparum
TEST DETAILS: Calibr Malaria Delayed Death Assay SOP
Assay type: functional, organism-based
Parameters: scale not given: in the data most compounds retested in dose-response had high values
RECORDED CONDITIONS: concentration 4.99e-06 (unit not given; other assays of the set use mol/L)
Out of some 38,000 compounds screened, about 1,200 (3.2%) showed an effect of 50% or more. The median lay at about -58%. Only a selection was taken, and strong results are over-represented in it overall.
So I've got a bunch of compounds here, and I need their Percent Effect values.
Answers are plain numbers, in %.

Record excerpt, results attached:
{"columns": ["COMPOUND", "Percent Effect, %"],
 "data": [
  ["CCCN(CCC)c1ncc(S(=O)(=O)c2ccccc2)c(N)n1", -11.95],
  ["CC(C)(O)CN1CCN(C(=O)c2cccn2Cc2ccccc2)CC1", -70.89],
  ["CN(Cc1ccccc1OC(F)(F)F)C(=O)C1CC1", -112.4],
  ["CNc1nnc(SCc2nnc(C(C)(C)C)o2)s1", -74.95],
  ["Clc1ccc(C2(NCc3noc(C4CC4)n3)CCC2)cc1", 11.94],
  ["Clc1ccc(C2(NCc3noc(C4CC4)n3)CCOCC2)cc1", -1.957],
  ["CCOCCNC(=O)c1cccnc1Sc1cc(OC)ccc1OC", -83.15],
  ["O=C(C1CC(=O)N(c2n[nH]c3cc(Br)ccc23)C1)N1CCOCC1 (stereo not drawn)", -162.5]
]}

Required: Percent Effect, one value per compound below.
1. Br.Cc1cc(C)c(N(CC(O)CNCc2ccccc2)S(C)(=O)=O)c(C)c1 (stereo not drawn)
2. Cc1cc(C)cc(C(=O)N2CCCN(CC(N)=O)CC2)c1
3. COc1ccccc1S(=O)(=O)Nc1cnc(O)cc1C
4. OCCN1CCN(CC(O)c2ccc(OC(F)(F)F)cc2)CC1 (stereo not drawn)

A.
1: 69.59; 2: -30.23; 3: -22.04; 4: -7.34

Required: Percent Effect, one value per compound below.
1. Cc1nc(C2CCCNC2)cc(N(C)CCc2cn[nH]c2)n1 (stereo not drawn)
2. Cc1ccc(CN2CC3(CCN(C(=O)Cc4ccc(Cl)cc4)C3)C2)o1
3. Cc1noc([C@@H]2C[C@@H]3CCN(c4nnc(C)s4)C[C@H]3O2)n1.O=C(O)C(F)(F)F
4. CC(C)CCOc1ccc(C(C)NC(=O)CSCC(N)=O)cc1 (stereo not drawn)
5. CCC1CN(Cc2c(O)ccc3oc4c(c23)CCCC4)CCO1 (stereo not drawn)
6. c1cc(-c2cnccn2)cc(-c2ccn(CCN3CCCCC3)n2)c1
7. CCn1ncnc1CN1CCC(CNC(=O)c2ccccc2C#N)C1 (stereo not drawn)

A.
-154.6
-2.786
-44.29
-21.89
59.59
41.47
-133.7
